- ASSAY_SYSTEM: UniProtKB Q8N474
- METHOD: Cell-based assay for in vitro measurement of SFRP-1/SARP2 antagonist activity (U2OS cells co-transfected with 16x TCF-tk-Luciferase reporter, Wnt and hSFRP-1)
OUTCOME_MEASURE: EC50 (nM)

{"columns": ["MOLECULE", "UNITS_OF_MEASURE", "OBSERVED_RESULT"],
 "data": [
  ["C[C@@H](NS(=O)(=O)c1cc(S(=O)(=O)c2ccccc2)ccc1C(F)(F)F)[C@H](O)c1ccccc1 (relative stereo) [Example 684]", "nM", 29300]
]}

A. CN(CCCNS(=O)(=O)c1cc(S(=O)(=O)c2ccccc2)ccc1C(F)(F)F)C(=O)NC1CCN(C(=O)OC(C)(C)C)CC1 [Example 955]
B. CCCc1ccc(S(=O)(=O)c2ccc(F)cc2)cc1S(=O)(=O)NCCc1cccnc1 [Example 874]
Between A and B , which one shows the smaller EC50 number? Which one? Tell me its label.
B

A. O=S(=O)(NCCc1ccc[n+]([O-])c1)c1cc(S(=O)(=O)c2ccccc2)ccc1C(F)(F)F [Example 723]
B. O=S(=O)(NCc1ccc(N2CCOCC2)nc1)c1cc(S(=O)(=O)c2ccccc2)ccc1C(F)(F)F [Example 1033]
Name the one with the greater EC50 value, either A or B as given. Which one? Tell me its label.
B

###

- ASSAY_SYSTEM: SFRP-1 (Homo sapiens)
- Sequence (Q8N474 32-314): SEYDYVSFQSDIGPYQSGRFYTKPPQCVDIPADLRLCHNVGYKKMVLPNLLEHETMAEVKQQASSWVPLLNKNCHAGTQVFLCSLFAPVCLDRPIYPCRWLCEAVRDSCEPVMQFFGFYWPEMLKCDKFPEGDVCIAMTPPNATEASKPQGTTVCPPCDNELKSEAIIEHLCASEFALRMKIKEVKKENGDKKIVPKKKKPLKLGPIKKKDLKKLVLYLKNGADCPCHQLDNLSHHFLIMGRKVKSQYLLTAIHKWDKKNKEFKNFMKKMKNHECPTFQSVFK
- METHOD: Cell-based assay for in vitro measurement of SFRP-1/SARP2 antagonist activity (U2OS cells co-transfected with 16x TCF-tk-Luciferase reporter, Wnt and hSFRP-1)
- CONDITION_LABEL: U2OS, read-out: Fold Induction with SFRP-1, Conc 15 μM; with SFRP-1; fold induction over SFRP-1 control, single dose
OUTCOME_MEASURE: fold induction at 15 µM

A. Cc1ccc(S(=O)(=O)c2cccc(Cl)c2Cl)cc1S(=O)(=O)NCCCn1ccnc1
B. Cc1ccc(S(=O)(=O)c2ccccc2)cc1S(=O)(=O)NCCn1ccnc1
Name the one with the greater fold induction at 15 µM value, either A or B as given. Which one? Tell me its label.
B
(B: 3.3, A: 1.9)

P. CCc1ccc(S(=O)(=O)c2ccccc2)cc1S(=O)(=O)NCCC(=O)OC
Q. COc1ccc(S(=O)(=O)c2ccccc2)cc1S(=O)(=O)NCCN1CCOCC1
Between P and Q , which one shows the smaller fold induction at 15 µM number? Which one? Tell me its label.
Q
(Q: 1.1, P: 2.4)

1. Cc1cc(C)c(S(=O)(=O)c2ccccc2)cc1S(=O)(=O)NCCC1CCOCC1
2. Cc1ccc(S(=O)(=O)c2ccccc2)c(C)c1S(=O)(=O)NC1CCOCC1
Name the one with the greater fold induction at 15 µM value, either 1 or 2 as given. Which one? Tell me its label.
1
(1: 2.6, 2: 0.9)

###

- ASSAY_SYSTEM: SFRP-1 (Homo sapiens, UniProt Q8N474)
- METHOD: Cell-based assay for in vitro measurement of SFRP-1/SARP2 antagonist activity (U2OS cells co-transfected with 16x TCF-tk-Luciferase reporter, Wnt and hSFRP-1)
- CONDITION_LABEL: U2OS, read-out: Fold Induction with SFRP-1, Conc 15 μM; with SFRP-1; fold induction over SFRP-1 control, single dose
OUTCOME_MEASURE: fold induction at 15 µM

{"columns": ["COMPOUND", "OBSERVED_RESULT"],
 "data": [
  ["CCC(O)CNc1ccc(S(=O)(=O)c2ccc(C)c(S(=O)(=O)NCCCn3ccnc3)c2)cc1 (centres unmarked)", 2.8],
  ["CCc1ccc(S(=O)(=O)c2ccccc2)cc1S(=O)(=O)N1CCN(CCN2CCOCC2)CC1", 2.1],
  ["Cc1ccc(S(=O)(=O)c2ccccc2)cc1S(=O)(=O)NC1CCN(C(=O)c2ccc(Cl)cc2)CC1", 1.7],
  ["CCOc1cc(CCNS(=O)(=O)c2cc(S(=O)(=O)c3ccccc3)ccc2CC)ccc1OC", 2.8]
]}

1. COc1ccc(C(=O)N2CCC(NS(=O)(=O)c3cc(S(=O)(=O)c4ccccc4)ccc3C)CC2)cc1OC
2. CCc1ccc(S(=O)(=O)c2ccc(F)cc2)cc1S(=O)(=O)NCCn1ccnc1
Between 1 and 2 , which one shows the smaller fold induction at 15 µM number? Which one? Tell me its label.
1

###

- ASSAY_SYSTEM: UniProtKB Q8N474
- Sequence (Q8N474 32-314): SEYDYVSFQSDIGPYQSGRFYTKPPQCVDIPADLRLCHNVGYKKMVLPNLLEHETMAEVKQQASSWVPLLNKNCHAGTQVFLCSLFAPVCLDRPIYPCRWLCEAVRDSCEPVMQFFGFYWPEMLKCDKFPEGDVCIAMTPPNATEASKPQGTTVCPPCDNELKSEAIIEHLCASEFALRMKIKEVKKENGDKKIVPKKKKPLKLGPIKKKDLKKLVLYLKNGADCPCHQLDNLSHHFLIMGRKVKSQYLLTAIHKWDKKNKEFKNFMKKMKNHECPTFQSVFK
- METHOD: Cell-based assay for in vitro measurement of SFRP-1/SARP2 antagonist activity (U2OS cells co-transfected with 16x TCF-tk-Luciferase reporter, Wnt and hSFRP-1)
OUTCOME_MEASURE: EC50 (nM)

Field: example entries. Status: answers known.
{"columns": ["COMPOUND", "EC50 (nM)"],
 "data": [
  ["N#CCCNS(=O)(=O)c1cc(S(=O)(=O)c2ccccc2)ccc1C(F)(F)F", 449],
  ["CN(C)C(=O)CN1CCC(NS(=O)(=O)c2cc(S(=O)(=O)c3ccccc3)ccc2C(F)(F)F)CC1", 746],
  ["COC(=O)C1CCCC(NS(=O)(=O)c2cc(S(=O)(=O)c3ccccc3)ccc2C(F)(F)F)C1 (stereo not drawn)", 1120],
  ["CC(C)(C)OC(=O)N1CC[C@@H](NS(=O)(=O)c2cc(S(=O)(=O)c3ccccc3)ccc2C(F)(F)F)C1", 140],
  ["COc1ccc(NC(=O)N(C)CCNS(=O)(=O)c2cc(S(=O)(=O)c3ccccc3)ccc2C(F)(F)F)cc1", 1870]
]}

A. COc1ccc(S(=O)(=O)c2ccc(C(F)(F)F)c(S(=O)(=O)NCCC#N)c2)cc1
B. O=S(=O)(NCCc1cccnc1)c1cc(S(=O)(=O)c2ccccc2)ccc1OC(F)(F)F
C. CS(=O)(=O)Nc1ccc(CCNS(=O)(=O)c2cc(S(=O)(=O)c3ccccc3)ccc2C(F)(F)F)cc1
D. CN(CCNS(=O)(=O)c1cc(S(=O)(=O)c2ccccc2)ccc1C(F)(F)F)C(=O)N1CCNCC1
E. COc1ccc(C(=O)N2CCC(NS(=O)(=O)c3cc(S(=O)(=O)c4ccccc4)ccc3C(F)(F)F)CC2)c(OC)c1
# sort list by recorded EC50, greatest to least Dear reader, please state the labels in the requested order.
B, D, E, A, C
(B: 3720 nM, D: 1930 nM, E: 1170 nM, A: 797 nM, C: 231 nM)

1. O=S(=O)(NCCn1ccnc1)c1cc(S(=O)(=O)c2ccccc2)ccc1C(F)(F)F
2. CN(CCNS(=O)(=O)c1cc(S(=O)(=O)c2ccccc2)ccc1C(F)(F)F)C(=O)N1CCCC1
Between 1 and 2 , which one shows the smaller EC50 number? Which one? Tell me its label.
1

I. CN(CCNS(=O)(=O)c1cc(S(=O)(=O)c2ccccc2)ccc1C(F)(F)F)C(=O)N[C@@H]1CCN(C(=O)OC(C)(C)C)C1
II. O=S(=O)(NC1CCNCC1)c1cc(S(=O)(=O)c2cccc(Br)c2)ccc1C(F)(F)F
Between I and II , which one shows the smaller EC50 number? Which one? Tell me its label.
I

###

- ASSAY_SYSTEM: SFRP-1 (Homo sapiens)
- METHOD: Cell-based assay for in vitro measurement of SFRP-1/SARP2 antagonist activity (U2OS cells co-transfected with 16x TCF-tk-Luciferase reporter, Wnt and hSFRP-1);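 further: U2OS cells co-transfected with a TCF-tk luciferase reporter, a Wnt vector, hSFRP-1 or empty vector and CMV-βgal, luciferase luminescence read in cell lysates alongside βgal activity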
- CONDITION_LABEL: U2OS, read-out: Fold Induction without SFRP-1, Conc 15 μM; without SFRP-1, single dose
OUTCOME_MEASURE: fold induction at 15 µM

{"columns": ["COMPOUND", "fold induction at 15 µM"],
 "data": [
  ["Cc1ccc(S(=O)(=O)c2ccc(F)cc2)cc1S(=O)(=O)NCCCN1CCCC1 [Example 178]", 1.5],
  ["CC(C)(O)Cc1ccc(S(=O)(=O)c2ccccc2)cc1S(=O)(=O)NCCc1ccccc1 [Example 341]", 1.1],
  ["C#CCN(CCc1ccc(OC)c(OC)c1)S(=O)(=O)c1cc(S(=O)(=O)c2ccccc2)ccc1C [Example 274]", 1],
  ["COc1ccccc1S(=O)(=O)c1ccc(C)c(S(=O)(=O)NCCCn2ccnc2)c1 [Example 316]", 1.1],
  ["COc1ccc(S(=O)(=O)c2ccccc2)cc1S(=O)(=O)NC[C@H](C)c1ccccc1 [Example 271]", 1.2],
  ["Cc1ccc(S(=O)(=O)c2ccc(F)cc2)cc1S(=O)(=O)NCCN(C)C [Example 172]", 1.1],
  ["COC(=O)CCNS(=O)(=O)c1cc(S(=O)(=O)c2ccc(F)cc2)ccc1C [Example 160]", 0.9],
  ["COc1ccc(S(=O)(=O)c2ccccc2)cc1S(=O)(=O)NCCc1ccccc1F [Example 156]", 1.4],
  ["COc1ccc(C(=O)N2CCC(NS(=O)(=O)c3cc(S(=O)(=O)c4ccccc4)ccc3C)CC2)cc1OC [Example 464]", 1],
  ["COc1cccc(S(=O)(=O)c2ccc(C)c(S(=O)(=O)NCCCn3ccnc3)c2)c1 [Example 323]", 0.9],
  ["COc1ccc(S(=O)(=O)c2ccccc2)cc1S(=O)(=O)NCCc1ccncc1 [Example 235]", 0.9],
  ["Cc1ccc(S(=O)(=O)c2ccccc2)cc1S(=O)(=O)NCC(O)c1ccccc1 (centres unmarked) [Example 386]", 1],
  ["Cc1ccc(S(=O)(=O)c2ccccc2)cc1S(=O)(=O)NCCCN1CCN(C)CC1 [Example 221]", 1.2],
  ["COc1ccccc1S(=O)(=O)c1ccc(C(C)C)c(S(=O)(=O)NCCc2ccccn2)c1 [Example 457]", 1],
  ["Cc1ccc(S(=O)(=O)c2ccc(F)cc2)cc1S(=O)(=O)NCCCN1CCCC1=O [Example 170]", 0.9],
  ["CCc1ccc(S(=O)(=O)c2ccccc2)cc1S(=O)(=O)N(C)CCc1ccccc1 [Example 284]", 1.2],
  ["COc1ccc(S(=O)(=O)c2ccccc2)cc1S(=O)(=O)N[C@H]1C[C@@H]1c1ccccc1 [Example 270]", 1.2]
]}
